Study target: NMDA receptor-ionophore complex (polyamine-sensitive ifenprodil binding site)
Assay method text: NMDA assay: competitive binding against [125I]ifenprodil in rat cortical membranes
Test context: 30 min, 20° C., pH 7.7
Exercise: state measured Ki for each of the compounds provided.
Answers are plain numbers, in µM.

Value of measured Ki for the entry Cc1cc(OCCN2CCN(CC(O)c3ccc(Cl)cc3)CC2)c(C)c(C)c1O (stereo not shown) [Example 21] : 6.1

# return Ki for each item in the list
1. CC(C)(C)c1cc(CN2CCN(CC(O)c3ccc(Cl)cc3)CC2)cc(C(C)(C)C)c1O (stereo not shown) [Compound 33]
2. CC(C)(C)c1cc(CN2CCN(CC(O)c3cccc([N+](=O)[O-])c3)CC2)cc(C(C)(C)C)c1O (stereo not shown) [Example 6]

A:
[10.8, 15.1]

# return Ki for each item in the list
1. CC(C)(C)c1cc(CN2CCN(CC(O)c3ccc(O)cc3)CC2)cc(C(C)(C)C)c1O (stereo not shown) [Compound 1]
2. CC(C)(C)c1cc(CN2CCN(CC(O)c3ccc4c(c3)OCO4)CC2)cc(C(C)(C)C)c1O (stereo not shown) [Compound 211]
3. Cc1cc(CN2CCN(CC(O)c3ccc(Cl)cc3)CC2)cc(C(C)(C)C)c1O (stereo not shown) [Compound 265]
4. CC(C)(C)c1cc(CN2CCN(CC(O)c3ccc(OC(F)(F)F)cc3)CC2)cc(C(C)(C)C)c1O (stereo not shown) [Compound 193]
5. CC(C)(C)c1cc(CN2CCN(CC(O)c3ccc(F)cc3)CC2)cc(C(C)(C)C)c1O (stereo not shown) [Compound 161]
6. CC(C(O)c1ccc(O)cc1)N1CCC(Cc2ccccc2)CC1 (stereo not shown) [ifenprodil]

A:
13
19.1
13.2
11.7
5.4
19.5

Value of measured Ki for the entry CC(C(O)c1ccc(Cl)cc1)N1CCN(Cc2cc(C(C)(C)C)c(O)c(C(C)(C)C)c2)CC1 (stereo not shown) [Compound 34] : 14.6

Where do these numbers come from? They come from patent US6232314A.
